- System: DeltatarO mutant
- TEST_DETAILS: S. aureus survival, RN4220 and DeltatarO strains – OD600, teichoic acid synthesis inhibitors, primary screen (AID 463173)
- EXPERIMENTAL_CONDITIONS: S. aureus RN4220 wild type/DeltatarO growth, OD600, 18 h, screened at 18.75 µg/mL (by protocol)
Among all 52,000 compounds or so, about 4,300 (8.3%) were called active. Cut-off read from the data, not from the text of the source: active = survival mostly below about 52% (no sharp cut-off); inactive = mostly above about 56%. The sample as a whole holds a higher share of actives than the screen did.
Could you please pick one outcome from this set? active, inactive

What outcome does the record of this test show for CC(C)(C)NC(=O)c1cnn(-c2ccccc2)c1C1CCN(C(=O)OC(C)(C)C)CC1 ?
inactive

What outcome does the record of this test show for CC1=Nc2cc(C(=O)NC3CCCC3)ccc2Sc2ccc(C)cc21 ?
inactive

What outcome does the record of this test show for Cc1cc(=O)n(Cc2ccccc2)c2c1c(C)nn2-c1ccccc1 ?
inactive

What outcome does the record of this test show for Cc1cc(=O)n(Cc2ccc(Cl)cc2)c2c1c(C)nn2-c1ccccc1 ?
inactive

What outcome does the record of this test show for Cc1cc(=O)n(Cc2cccc(Cl)c2)c2c1c(C)nn2C ?
inactive

What outcome does the record of this test show for C#CCSc1nc(-c2ccccc2)cc(-c2ccccc2)c1C#N ?
active

What outcome does the record of this test show for CCn1c(C(=O)Nc2cc(C)cc(C)c2)cc2sc(Cl)cc21 ?
inactive

What outcome does the record of this test show for CC1=Nc2cc(C(=O)NC3CCC(C)CC3)ccc2Sc2c(C)ccc(C)c21 (stereo not drawn) ?
inactive

What outcome does the record of this test show for COc1ccccc1NC(=O)CSc1nc2ccccc2c2nc(-c3ccccc3)nn12 ?
inactive

What outcome does the record of this test show for CCC1=Nc2cc(C(=O)NCc3ccc(C)cc3)ccc2Sc2ccc(C)cc21 ?
inactive

What outcome does the record of this test show for CCN(CC)C(=O)CSc1nc(-c2ccccc2)cc(-c2ccc(OC)cc2)c1C#N ?
active

What outcome does the record of this test show for Cc1cc(=O)n(Cc2ccccc2)c2c1c(C)nn2C ?
active

What outcome does the record of this test show for COc1ccc(-c2cc(-c3ccccc3)nc(SCC(=O)Nc3ccccc3F)c2C#N)cc1 ?
inactive

What outcome does the record of this test show for CCn1c(C(=O)Nc2c(C)cccc2C)cc2sc(Cl)cc21 ?
active

What outcome does the record of this test show for CCOc1ccc(CNC(=O)Cn2c(=O)c3cccn3c3cccnc32)cc1 ?
inactive

What outcome does the record of this test show for Cc1ccc(NC(=O)c2ccc(=O)n(CC(=O)Nc3cccc(C)c3)n2)cc1 ?
inactive

What outcome does the record of this test show for CCc1ccc(NC(=O)CCc2c(C)nc3nc(-c4cc(OC)cc(OC)c4)nn3c2C)cc1 ?
inactive

What outcome does the record of this test show for Cc1ccc(C)c(Cn2c(=O)cc(C)c3c(C)nn(C)c32)c1 ?
inactive

What outcome does the record of this test show for CCn1c(C(=O)Nc2ccc(C)cc2C)cc2sc(Cl)cc21 ?
inactive

What outcome does the record of this test show for CCn1c(C(=O)Nc2cc(Cl)ccc2C)cc2sc(Cl)cc21 ?
inactive

What outcome does the record of this test show for Cc1ccc(NC(=O)CSc2nc(-c3ccc(F)cc3)cc(C(F)(F)F)c2C#N)cc1 ?
inactive

What outcome does the record of this test show for CCS(=O)(=O)CCSc1nc(-c2ccc(Br)cc2)cc(-c2ccccc2)c1C#N ?
inactive

What outcome does the record of this test show for C=Cc1ccc(Cn2c(=O)cc(C)c3c(C)nn(C)c32)cc1 ?
active

What outcome does the record of this test show for CCCC1=Nc2cc(C(=O)NC3CCCC3)ccc2Sc2ccc(C)cc21 ?
active

What outcome does the record of this test show for COc1cccc(Cn2c(=O)cc(C)c3c(C)nn(C)c32)c1 ?
inactive

What outcome does the record of this test show for CCN1CC=C2C(C#N)=C(N)C(C#N)(C#N)C(c3ccc(OC)c4ccccc34)C2C1 (stereo not drawn) ?
inactive

What outcome does the record of this test show for CC(C)(C)n1nnnc1CN1CCC(NC(=O)Nc2ccc(F)cc2)CC1 ?
inactive

What outcome does the record of this test show for CCCCNS(=O)(=O)c1ccc(N2CCCCS2(=O)=O)cc1 ?
inactive

What outcome does the record of this test show for CCC1=Nc2cc(C(=O)NC3CCCC3)ccc2Sc2ccc(Br)cc21 ?
active

What outcome does the record of this test show for Cc1cccc(NC(=O)c2ccc(-n3cnc4cccnc43)cc2)c1C ?
inactive

What outcome does the record of this test show for CCC1=Nc2cc(C(=O)NC3CCC(C)CC3)ccc2Sc2ccc(C)cc21 (stereo not drawn) ?
active

What outcome does the record of this test show for Cc1cc(SCCN2CCOCC2)nc2ccccc12 ?
inactive

What outcome does the record of this test show for N#Cc1c(C(F)(F)F)cc(-c2ccc(F)cc2)nc1SCC(=O)Nc1ccccc1 ?
inactive

What outcome does the record of this test show for COC(=O)c1ccc(Cn2c(=O)cc(C)c3c(C)nn(C)c32)cc1 ?
inactive

What outcome does the record of this test show for COc1cccc(C(=O)Nc2ccc3nc(SCC(=O)N4CCOCC4)sc3c2)c1 ?
inactive

What outcome does the record of this test show for CCc1ccccc1NC(=O)Cn1c(=O)n(Cc2ccccc2)c(=O)c2c(C)c(C(=O)N(C)C)sc21 ?
inactive

What outcome does the record of this test show for N#CN=C(N)CSc1nc(-c2ccccc2)cc(-c2ccccc2)c1C#N ?
inactive

What outcome does the record of this test show for COc1ccc(-c2cc(-c3ccccc3)nc(SCC(=O)CC(=O)OC(C)C)c2C#N)cc1 ?
inactive

What outcome does the record of this test show for C=C(C)CSc1nc(-c2ccccc2)cc(-c2ccc(OC)cc2)c1C#N ?
inactive

What outcome does the record of this test show for O=C(Nc1cc(C(F)(F)F)ccc1Cl)c1cc(S(=O)(=O)NCc2ccccc2)ccc1F ?
inactive

What outcome does the record of this test show for CC1=Nc2cc(C(=O)NC3CCCC3)ccc2Sc2ccc(Br)cc21 ?
inactive

What outcome does the record of this test show for CCn1c(C(=O)Nc2ccccc2C(=O)OC)cc2sc(Cl)cc21 ?
active

What outcome does the record of this test show for CCC(C)NC(=O)c1ccc2c(c1)N(Cc1ccccc1)C(=O)c1ccccc1S2 (stereo not drawn) ?
inactive
